For each of the compounds below, state its inhibition.
Target: Tyrosine-protein kinase ABL2 (Homo sapiens) (UniProt P42684)
Sequence (P42684 whole entry): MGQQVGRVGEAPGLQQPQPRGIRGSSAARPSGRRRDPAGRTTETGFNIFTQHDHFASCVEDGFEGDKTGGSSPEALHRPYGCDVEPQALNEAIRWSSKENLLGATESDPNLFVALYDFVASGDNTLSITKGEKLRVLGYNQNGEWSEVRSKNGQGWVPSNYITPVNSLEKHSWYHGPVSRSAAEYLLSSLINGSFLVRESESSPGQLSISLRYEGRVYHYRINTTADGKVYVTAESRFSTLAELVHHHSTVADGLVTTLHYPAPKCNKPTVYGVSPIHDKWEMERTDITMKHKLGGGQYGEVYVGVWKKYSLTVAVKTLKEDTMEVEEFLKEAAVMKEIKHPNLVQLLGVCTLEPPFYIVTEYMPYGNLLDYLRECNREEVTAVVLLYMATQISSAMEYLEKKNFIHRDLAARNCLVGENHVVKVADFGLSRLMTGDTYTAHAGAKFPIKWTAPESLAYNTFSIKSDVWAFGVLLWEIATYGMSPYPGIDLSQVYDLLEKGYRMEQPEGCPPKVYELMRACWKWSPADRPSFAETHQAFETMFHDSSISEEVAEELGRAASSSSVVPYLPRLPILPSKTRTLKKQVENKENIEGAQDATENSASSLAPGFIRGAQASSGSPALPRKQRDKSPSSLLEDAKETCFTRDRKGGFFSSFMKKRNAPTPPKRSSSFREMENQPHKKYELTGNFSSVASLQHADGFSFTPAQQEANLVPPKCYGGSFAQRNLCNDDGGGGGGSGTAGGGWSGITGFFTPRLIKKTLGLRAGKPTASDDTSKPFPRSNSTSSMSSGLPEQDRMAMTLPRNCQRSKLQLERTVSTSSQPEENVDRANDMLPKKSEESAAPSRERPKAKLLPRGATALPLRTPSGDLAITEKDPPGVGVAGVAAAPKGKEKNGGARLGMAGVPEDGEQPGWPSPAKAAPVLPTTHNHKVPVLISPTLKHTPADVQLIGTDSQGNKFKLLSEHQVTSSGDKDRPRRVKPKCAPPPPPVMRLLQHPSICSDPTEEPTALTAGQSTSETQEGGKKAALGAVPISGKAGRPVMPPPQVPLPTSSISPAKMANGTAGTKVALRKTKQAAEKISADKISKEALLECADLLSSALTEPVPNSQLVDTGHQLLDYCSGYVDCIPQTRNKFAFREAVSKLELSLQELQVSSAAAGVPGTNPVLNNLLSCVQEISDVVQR
Test: Inhibition of ABL2 at 1 uM

*Q* Fill in the recorded inhibition for this compound, with Tyrosine-protein kinase ABL2 (Homo sapiens) (UniProt P42684) as test system: CN1CCN(c2ccc(-c3cnc4c(c3)N(Cc3cc(F)ccc3F)CCN4)cn2)CC1
*A* < 50%

*Q* Fill in the recorded inhibition for this compound, with Tyrosine-protein kinase ABL2 (Homo sapiens) (UniProt P42684) as test system: CC(=O)N1CCN(c2cc(-c3cnc4c(c3)N(Cc3cc(Cl)ccc3C(F)(F)F)CCN4)ccn2)CC1
*A* < 50%

*Q* Fill in the recorded inhibition for this compound, with Tyrosine-protein kinase ABL2 (Homo sapiens) (UniProt P42684) as test system: O=C(c1ccc(-c2cnc3c(c2)N(Cc2cc(Cl)ccc2C(F)(F)F)CCN3)cc1)N1CCC(N2CCCC2)CC1
*A* 75.9%

*Q* Fill in the recorded inhibition for this compound, with Tyrosine-protein kinase ABL2 (Homo sapiens) (UniProt P42684) as test system: O=C(O)c1ccc(-c2cnc3c(c2)N(Cc2cc(Cl)ccc2C(F)(F)F)CCN3)cc1
*A* < 50%

*Q* Fill in the recorded inhibition for this compound, with Tyrosine-protein kinase ABL2 (Homo sapiens) (UniProt P42684) as test system: O=C(c1ccc(-c2cnc3c(c2)N(Cc2cc(Cl)ccc2C(F)(F)F)CCN3)cc1)N1CCCCC1
*A* < 50%
